This collection of values is drawn from patent US10266548B2.

tested-target: catalytic domain of human Bub1 (amino acids 704-1085) (Homo sapiens (Human), UniProt O43683)
Sequence (O43683 704-1085): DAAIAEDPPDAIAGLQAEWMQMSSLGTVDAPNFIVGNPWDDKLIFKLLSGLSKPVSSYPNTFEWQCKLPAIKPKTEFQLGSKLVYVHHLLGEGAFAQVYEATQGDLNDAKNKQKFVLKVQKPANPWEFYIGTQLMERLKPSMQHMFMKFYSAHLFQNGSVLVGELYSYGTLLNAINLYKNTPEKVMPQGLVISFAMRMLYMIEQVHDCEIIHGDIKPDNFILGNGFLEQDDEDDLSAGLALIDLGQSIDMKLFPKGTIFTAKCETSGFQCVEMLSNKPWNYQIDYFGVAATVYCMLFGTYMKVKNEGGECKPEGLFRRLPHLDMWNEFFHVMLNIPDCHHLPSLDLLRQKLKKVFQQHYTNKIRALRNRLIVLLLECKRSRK
pIC50: −log10 of the molar value.

{"compound": "CNC(=O)c1ccc(Cl)c(Cn2nc(-c3ncc(OC)c(Nc4ccncc4)n3)c3ccccc32)c1Cl", "pIC50": 6.70}
{"compound": "COc1cnc(-c2nn(Cc3ccccc3Br)c3ccccc23)nc1N(Cc1ccccc1Br)c1ccncc1", "pIC50": 4.70}
{"compound": "COc1cnc(-c2nn(Cc3c(F)cccc3F)c3ccccc23)nc1Nc1ccncc1", "pIC50": 8.32}
{"compound": "OC[C@H](O)COc1cnc(-c2nn(Cc3ccccc3F)c3ccccc23)nc1Nc1ccncc1 [Example 15-2]", "pIC50": 8.26}
{"compound": "COc1cnc(-c2nn(Cc3c(F)cc(C(N)=O)cc3F)c3ccccc23)nc1Nc1ccncc1", "pIC50": 7.96}
{"compound": "C/C=C/c1cc(F)c(Cn2nc(-c3ncc(OC)c(Nc4ccncc4)n3)c3ccccc32)c(F)c1", "pIC50": 8.13}
{"compound": "COc1cc(Cn2nc(-c3ncc(OC)c(Nc4ccncc4)n3)c3ccccc32)cc(OC)c1", "pIC50": 7.64}
{"compound": "CCOC(=O)Cc1cccc(Cn2nc(-c3ncc(OC)c(Nc4ccncc4)n3)c3ccccc32)c1", "pIC50": 7.28}
{"compound": "COc1cnc(-c2nn(Cc3c(Cl)ccc(CO)c3Cl)c3ccccc23)nc1Nc1ccncc1 [Example 8-1]", "pIC50": 8.13}
{"compound": "COc1cnc(-c2nn(Cc3c(F)cc(OC(F)F)cc3F)c3ccccc23)nc1Nc1ccncc1", "pIC50": 8.25}
{"compound": "COc1cnc(-c2nn(Cc3cccc(CCO)c3)c3ccccc23)nc1Nc1ccncc1", "pIC50": 7.68}
{"compound": "COc1cnc(-c2nn(Cc3ccccc3F)c3ccccc23)nc1Nc1ccncc1C(N)=O", "pIC50": 7.89}
{"compound": "CCOc1ccc(CN(c2ccncc2)c2nc(-c3nn(Cc4ccc(OCC)c(F)c4F)c4ccccc34)ncc2OC)c(F)c1F", "pIC50": 6.14}
{"compound": "CCOC(=O)C(C)(C)c1cccc(Cn2nc(-c3ncc(OC)c(Nc4ccncc4)n3)c3ccccc32)c1", "pIC50": 6.82}
{"compound": "CCOc1cc(F)c(Cn2nc(-c3ncc(OCC4CNCCO4)c(Nc4ccncc4)n3)c3ccccc32)c(F)c1 (stereo not drawn)", "pIC50": 8.47}
